The reported measurements were obtained from PubChem BioAssay.

Assay: inhibitors of fungal efflux pumps CDR1, CDR2, MDR1, pilot screen, validation compound set, multiplex, phenotypic (AID 588506);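 further: Nile Red retained in cells so higher fluorescence means more efflux inhibition; 0 = negative control wells and 1 = enniatin B 25 µM full block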
Settings: S. cerevisiae pump-expressing triplex, Nile Red efflux flow cytometry; at 10 µM; stronger effect = higher value; the pumps come from Candida albicans
compounds and their reported efflux inhibition (fraction of control)
Metric: efflux inhibition (fraction of control)

[[record]]
compound = "CCCCNC(=O)NS(=O)(=O)c1ccc(C)cc1"
reported_measurement = -0.05

[[record]]
compound = "OC(CCN1CCCCC1)(c1ccccc1)C1CCCCC1 (stereo unspecified)"
reported_measurement = -0.05

[[record]]
compound = "CCc1cc(=O)oc2cc(OCC=C(C)C)ccc12"
reported_measurement = -0.03

[[record]]
compound = "COc1cc2c(cc1OC)C(c1cc3ccccc3oc1=O)=NC(C)(C)C2"
reported_measurement = 0.1

[[record]]
compound = "CCOC(=O)C(=O)Nc1ccc(Oc2ccccc2)cc1"
reported_measurement = -0.05

[[record]]
compound = "CCOc1ccc(C(=O)/C=C/c2cc(OC)c(OC)c(OC)c2)cc1"
reported_measurement = 0.25

[[record]]
compound = "C[C@]12CCC(=O)C=C1CC[C@@H]1[C@@H]2CC[C@@]2(C)[C@H]1CC[C@]2(O)C(=O)CO"
reported_measurement = -0.31

[[record]]
compound = "COc1ccc(-c2cc(=O)oc3c(C)c(O)c(CN(C)C)cc23)cc1"
reported_measurement = 0.42

[[record]]
compound = "Cc1cnc(C(=O)NCCc2ccc(S(=O)(=O)NC(=O)NC3CCCCC3)cc2)cn1"
reported_measurement = -0.12

[[record]]
compound = "COc1ccc(-c2nc(C)c(C(C)=O)n2O)cc1OC"
reported_measurement = 0.01

[[record]]
compound = "O=c1c(-c2ccc3c(c2)OCCO3)coc2cc(OC3OC(CO)C(O)C(O)C3O)ccc12 (stereo unspecified)"
reported_measurement = -0.28

